For each of the compounds below, state its B-scores (WT).
Molecular target: MRGPRX2-WT (wild-type MRGPRX2 receptor) (Homo sapiens, UniProt Q96LB1)
Construct: expressed in transfected cells
Experiment: Primary HTS, Ca2+ mobilization (fluorescence ratio, B-score) in HEK293-Gα15 cells stably expressing wild-type MRGPRX2
Assay type: cell-based
Conditions: 10 μM compound, Table 1
Structures can show the parent of a compound that is named as a salt.
Form field (numeric): enter value without unit.

Req: Return value of B-scores (WT) for input Cc1ccc(/C(=C\CN2CCCC2)c2ccccn2)cc1.Cl [Triprolidine Hydrochloride] , no commentary.
Resp: 20.71

Req: Return value of B-scores (WT) for input CN(C)CCC(c1ccc(Br)cc1)c1ccccn1 (centres unmarked) [Brompheniramine] , no commentary.
Resp: 18.22

Req: Return value of B-scores (WT) for input CN1CCCC(n2nc(Cc3ccc(Cl)cc3)c3ccccc3c2=O)CC1 (centres unmarked) [Azelastine Hydrochloride] , no commentary.
Resp: 36.21

Req: Return value of B-scores (WT) for input "CN1CCN(CC/C=C2/c3ccccc3Sc3ccc(S(=O)(=O)N(C)C)cc32)CC1" , no commentary.
Resp: 20.36

Req: Return value of B-scores (WT) for input "CCOC(=O)N1CCC(=C2c3ccc(Cl)cc3CCc3cccnc32)CC1" , no commentary.
Resp: 21.95

---

Biological target: MRGPRX2-MUT (MRGPRX2 N62S mutation) (Homo sapiens, UniProt Q96LB1, N62S)
Construct: expressed in transfected cells
Sequence (Q96LB1 1-330 N62S): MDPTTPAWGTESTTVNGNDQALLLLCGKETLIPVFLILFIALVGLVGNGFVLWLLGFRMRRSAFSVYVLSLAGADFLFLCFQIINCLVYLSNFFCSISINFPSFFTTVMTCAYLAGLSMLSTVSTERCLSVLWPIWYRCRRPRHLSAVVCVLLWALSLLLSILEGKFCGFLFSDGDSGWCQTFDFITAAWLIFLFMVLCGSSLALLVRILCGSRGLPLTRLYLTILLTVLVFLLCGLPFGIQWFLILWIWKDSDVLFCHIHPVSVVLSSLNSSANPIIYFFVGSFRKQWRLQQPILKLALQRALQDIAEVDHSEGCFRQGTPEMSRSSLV
Assay: Primary HTS, Ca2+ mobilization (fluorescence ratio, B-score) in HEK293-Gα15 cells stably expressing the MRGPRX2 N62S mutation
Assay type: cell-based
Details: MRGPRX2-MUT in comparison to MRGPRX2-WT cells, 10 μM, Supplementary Table 1
Where a name gives a salt, the structure may show the parent alone.
measured parameter: Change of B-scores (%)
Reply with the number and its unit after it.

Req: For MRGPRX2-MUT (MRGPRX2 N62S mutation) (Homo sapiens, UniProt Q96LB1, N62S), give Change of B-scores (%) of the listed compound: CN1CCC(=C2c3ccccc3CC(=O)c3sccc32)CC1 [Ketotifen Fumarate]
Resp: -96.52%

Req: For MRGPRX2-MUT (MRGPRX2 N62S mutation) (Homo sapiens, UniProt Q96LB1, N62S), give Change of B-scores (%) of the listed compound: CN1CCC(=C2c3ccccc3C=Cc3ccccc32)CC1 [Cyproheptadine Hydrochloride]
Resp: -94.50%

Req: For MRGPRX2-MUT (MRGPRX2 N62S mutation) (Homo sapiens, UniProt Q96LB1, N62S), give Change of B-scores (%) of the listed compound: CC(=O)OC(C)C[N+](C)(C)C (stereo not drawn) [Methacholine Chloride]
Resp: 43.29%

Req: For MRGPRX2-MUT (MRGPRX2 N62S mutation) (Homo sapiens, UniProt Q96LB1, N62S), give Change of B-scores (%) of the listed compound: CC(C)CCCC(C)NC(C)C (stereo not drawn)
Resp: -61.42%

Req: For MRGPRX2-MUT (MRGPRX2 N62S mutation) (Homo sapiens, UniProt Q96LB1, N62S), give Change of B-scores (%) of the listed compound: CCC(NC(C)C)C(O)c1ccc(O)c(O)c1 (stereo not drawn) [Isoetharine Mesylate]
Resp: -97.97%

Req: For MRGPRX2-MUT (MRGPRX2 N62S mutation) (Homo sapiens, UniProt Q96LB1, N62S), give Change of B-scores (%) of the listed compound: "CCOC(=O)N1CCC(=C2c3ccc(Cl)cc3CCc3cccnc32)CC1"
Resp: -115.04%

Req: For MRGPRX2-MUT (MRGPRX2 N62S mutation) (Homo sapiens, UniProt Q96LB1, N62S), give Change of B-scores (%) of the listed compound: CN1[C@@H]2CC[C@H]1C[C@@H](OC(=O)C(CO)c1ccccc1)C2 (stereo partly drawn) [Atropine Sulfate]
Resp: -100.31%

Req: For MRGPRX2-MUT (MRGPRX2 N62S mutation) (Homo sapiens, UniProt Q96LB1, N62S), give Change of B-scores (%) of the listed compound: CNCC[C@H](Oc1cccc2ccccc12)c1cccs1 [Duloxetine Hydrochloride]
Resp: -98.55%

Req: For MRGPRX2-MUT (MRGPRX2 N62S mutation) (Homo sapiens, UniProt Q96LB1, N62S), give Change of B-scores (%) of the listed compound: "C[CH2][Hg][S]c1ccccc1C(=O)[O-].[Na+]"
Resp: -98.25%
